Biological target: hGLP-1R (Homo sapiens, UniProt P43220)
Sequence (P43220 24-463): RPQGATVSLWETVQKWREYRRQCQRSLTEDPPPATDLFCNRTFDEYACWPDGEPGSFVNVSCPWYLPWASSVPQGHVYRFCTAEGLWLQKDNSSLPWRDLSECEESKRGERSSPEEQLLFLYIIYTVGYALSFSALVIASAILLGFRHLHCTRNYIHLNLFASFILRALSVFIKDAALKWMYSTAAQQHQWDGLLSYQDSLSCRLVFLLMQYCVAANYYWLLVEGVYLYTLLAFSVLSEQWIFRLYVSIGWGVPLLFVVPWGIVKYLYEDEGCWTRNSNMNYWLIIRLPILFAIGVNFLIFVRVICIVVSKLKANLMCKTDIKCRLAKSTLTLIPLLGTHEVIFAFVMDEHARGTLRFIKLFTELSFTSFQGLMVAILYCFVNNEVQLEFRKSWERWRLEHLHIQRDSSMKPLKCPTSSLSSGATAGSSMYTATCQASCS
Experiment: cell-based or functional assay
Non-standard residues stand in square brackets, D forms with d. No end group written: not given here. αMePhe(2-F) = C[C@](N)(Cc1ccccc1F)C(=O)O; Aib = CC(C)(N)C(=O)O

{"Binder": "YXQGTFTSDFSKXLDKKAQXAFIEYLIEGGESSGAPPPSGS (acylated; synthetic construct; SITE 2: note = 2-Aminoisobutyric Acid; SITE 13: note = alpha-methyl-leucine; SITE 17: note = Lysine is chemically modified through conjugation of the epsilon-amino group of the Lysine side chain with (2-[2-(2-Amino-ethoxy)-ethoxy]-acetyl)-(gamma-Glu)-CO-(CH2) 16-CO2H; SITE 20: n) [Example 215]", "cAMP Rel EC50, nM (1% HSA)": "162 nM"}
{"Binder": "YXQGTFTSDXSQXLDXKAQXQFIEXLIEGGPSSGAPPPSGSEE (non-natural residues, C-terminal amide, acylated Lys with fatty diacid; synthetic construct; SITE 2: note = 2-Aminoisobutyric Acid; SITE 10: note = 3-(4-Pyridyl)-L-alanine; SITE 13: note = alpha-methyl-leucine; SITE 16: note = L-ornithine; SITE 17: note = Lysine is chemically modified through conjugation of the epsilon-amino group of the Lysine side chain with (gamma-Gl)) [Example 1046]", "cAMP Rel EC50, nM (1% HSA)": "528 nM"}
{"Binder": "YXQGTXTSDYXSLLDXKAQXXFIEXLLEGGPSSGEPPPE (synthetic construct; SITE 2: note = 2-Aminoisobutyric Acid; SITE 6: note = alpha-methyl-L-phenylalanine; SITE 11: note = alpha-methyl-L-serine; SITE 16: note = L-ornithine; SITE 17: note = Lysine is chemically modified through conjugation of the epsilon-amino group of the Lysine side chain with (2-[) [Example 390]", "cAMP Rel EC50, nM (1% HSA)": "19.6 nM"}
{"Binder": "YXQGTFTSDXSXXLDKKAQXAFIEYLLEXGHSSGAPPPSGS (synthetic construct; SITE 2: note = 2-Aminoisobutyric Acid; SITE 10: note = 4-cyano-L-phenylalanine; SITE 12: note = L-ornithine; SITE 13: note = alpha-methyl-leucine; SITE 17: note = Lysine is chemically modified through conjugation of the epsilon-amino group of the Lysine side chain with (2-[2-(2-) [Example 190]", "cAMP Rel EC50, nM (1% HSA)": "172 nM"}
{"Binder": "YXQGTXTSDYSIXLDKKAQXAFIEYLLETGPSSGAPPPSEG (synthetic construct; SITE 2: note = 2-Aminoisobutyric Acid; SITE 6: note = alpha-methyl-2-fluoro-L-phenylalanine; SITE 13: note = alpha-methyl-leucine; SITE 17: note = Lysine is chemically modified through conjugation of the epsilon-amino group of the Lysine side chain with (2-[2-(2-Amino-ethoxy)-et)) [Example 417]", "cAMP Rel EC50, nM (1% HSA)": "67 nM"}
{"Binder": "Y[Aib]QGT[αMePhe(2-F)]TSDYSKLLDKIAQKAFIEYLIEGGPSSGAPPPEGE-NH2 (not fully specified (residue 20)) [Example 357]", "cAMP Rel EC50, nM (1% HSA)": "248 nM"}
{"Binder": "YXQGTFTSDFSXXLDKKAQXAFIEYLLEXGPSSGEPPPSGS (synthetic construct; SITE 2: note = 2-Aminoisobutyric Acid; SITE 12: note = L-ornithine; SITE 13: note = alpha-methyl-leucine; SITE 17: note = Lysine is chemically modified through conjugation of the epsilon-amino group of the Lysine side chain with (2-[2-(2-Amino-ethoxy)-ethoxy]-acetyl)2-(gamma-Glu)) [Example 166]", "cAMP Rel EC50, nM (1% HSA)": "1500 nM"}
{"Binder": "YXQGTFTSDXSRXLDKKAQXAFIEXLIEGGPSSGAPPPSGS (Aib, 4Pal, αMeL, Me4Pal; lipidated Lys; C-terminal amide; synthetic construct; SITE 2: note = 2-Aminoisobutyric Acid; SITE 10: note = 3-(4-Pyridyl)-L-alanine; SITE 13: note = alpha-methyl-leucine; SITE 17: note = Lysine is chemically modified through conjugation of the epsilon-amino group of the Lysine side chain with (gamma-Glu)2-CO-(CH2)16-CO2H; SITE 20:) [Example 953]", "cAMP Rel EC50, nM (1% HSA)": "347 nM"}
{"Binder": "YXQGTFTSDXSQXLDXKAQXAFIEYLIEAGPSSGAPPPSGS (not fully specified; Aib, 4Pal, αMeL, Orn, Me4Pal, D-Ala; acylated Lys; amide; synthetic construct; SITE 2: note = 2-Aminoisobutyric Acid; SITE 10: note = 3-(4-Pyridyl)-L-alanine; SITE 13: note = alpha-methyl-leucine; SITE 16: note = L-ornithine; SITE 17: note = Lysine is chemically modified through conjugation of the epsilon-amino group of the Lysine side chain with (gamma-Gl)) [Example 1017]", "cAMP Rel EC50, nM (1% HSA)": "118 nM"}
{"Binder": "YXQGTXTSDYXILLDKKAQXAFIEYLEEGGPSSGAPPPS (synthetic construct; SITE 2: note = 2-Aminoisobutyric Acid; SITE 6: note = alpha-methyl-L-phenylalanine; SITE 11: note = alpha-methyl-L-serine; SITE 17: note = Lysine is chemically modified through conjugation of the epsilon-amino group of the Lysine side chain with (2-[2-(2-Amino-ethoxy)-ethoxy]-ac)) [Example 393]", "cAMP Rel EC50, nM (1% HSA)": "29.6 nM"}
{"Binder": "YXQGTFTSDFSXXLDKKAQXAFIEYLLEXGHSSGAPPPSGT (synthetic construct; SITE 2: note = 2-Aminoisobutyric Acid; SITE 12: note = L-ornithine; SITE 13: note = alpha-methyl-leucine; SITE 17: note = Lysine is chemically modified through conjugation of the epsilon-amino group of the Lysine side chain with (2-[2-(2-Amino-ethoxy)-ethoxy]-acetyl)2-(gamma-Glu)) [Example 182]", "cAMP Rel EC50, nM (1% HSA)": "398 nM"}
{"Binder": "YXQGTXTSDYSIXLDXKAQXAFIEYLEEGGPSSGAPPPE (not fully specified; synthetic construct; SITE 2: note = 2-Aminoisobutyric Acid; SITE 6: note = alpha-methyl-L-phenylalanine; SITE 13: note = alpha-methyl-leucine; SITE 16: note = L-ornithine; SITE 17: note = Lysine is chemically modified through conjugation of the epsilon-amino group of the Lysine side chain with (2-[2)) [Example 397]", "cAMP Rel EC50, nM (1% HSA)": "34.9 nM"}
{"Binder": "YXQGTFTSDXSQXLDXKAQXQFIEXLLAGGPSSGAPPPSGSEE (non-natural residues, acylated Lys, C-terminal amide; synthetic construct; SITE 2: note = 2-Aminoisobutyric Acid; SITE 10: note = 3-(4-Pyridyl)-L-alanine; SITE 13: note = alpha-methyl-leucine; SITE 16: note = L-ornithine; SITE 17: note = Lysine is chemically modified through conjugation of the epsilon-amino group of the Lysine side chain with (gamma-Gl)) [Example 998]", "cAMP Rel EC50, nM (1% HSA)": "1470 nM"}
{"Binder": "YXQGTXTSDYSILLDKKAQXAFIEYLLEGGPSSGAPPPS (synthetic construct; SITE 2: note = 2-Aminoisobutyric Acid; SITE 6: note = alpha-methyl-L-phenylalanine; SITE 17: note = Lysine is chemically modified through conjugation of the epsilon-amino group of the Lysine side chain with (2-[2-(2-Amino-ethoxy)-ethoxy]-acetyl)2-(gamma-Glu)-CO-(CH2 )16-CO2H; SI) [Example 419]", "cAMP Rel EC50, nM (1% HSA)": "65.5 nM"}
{"Binder": "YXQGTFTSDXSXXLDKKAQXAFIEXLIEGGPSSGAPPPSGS (Aib, 4Pal, Orn, Me4Pal; acylated lysine; amide; synthetic construct; SITE 2: note = 2-Aminoisobutyric Acid; SITE 10: note = 3-(4-Pyridyl)-L-alanine; SITE 12: note = L-ornithine; SITE 13: note = alpha-methyl-leucine; SITE 17: note = Lysine is chemically modified through conjugation of the epsilon-amino group of the Lysine side chain with (2-[2-(2-) [Example 949]", "cAMP Rel EC50, nM (1% HSA)": "721 nM"}
{"Binder": "YXQGTFTSDFSRXLDKKAQXAFIEYLIEGGESSGAPPPSGS (acylated; synthetic construct; SITE 2: note = 2-Aminoisobutyric Acid; SITE 13: note = alpha-methyl-leucine; SITE 17: note = Lysine is chemically modified through conjugation of the epsilon-amino group of the Lysine side chain with (2-[2-(2-Amino-ethoxy)-ethoxy]-acetyl)-(gamma-Glu)-CO-(CH2) 16-CO2H; SITE 20: n) [Example 220]", "cAMP Rel EC50, nM (1% HSA)": "189 nM"}
{"Binder": "YXQGTFTSDXSXXLDXKAQXQFIEYLLAGGPSSGAPPPSGSEE (non-natural residues; (γGlu)2-C18 diacid on Lys; C-terminal amide; synthetic construct; SITE 2: note = 2-Aminoisobutyric Acid; SITE 10: note = 3-(4-Pyridyl)-L-alanine; SITE 12: note = L-ornithine; SITE 13: note = alpha-methyl-leucine; SITE 16: note = L-ornithine; SITE 17: note = Lysine is chemically modified through conjugation of the epsilon-amino group of the Lys) [Example 1002]", "cAMP Rel EC50, nM (1% HSA)": "1290 nM"}
{"Binder": "YXQGTFTSDXSXXLDKKAQXAFIEXLIEGGPSSGAPPPSGSE (acylated Lys (γGlu)2-C18 diacid; non-natural residues; C-terminal amide; synthetic construct; SITE 2: note = 2-Aminoisobutyric Acid; SITE 10: note = 3-(4-Pyridyl)-L-alanine; SITE 12: note = L-ornithine; SITE 13: note = alpha-methyl-leucine; SITE 17: note = Lysine is chemically modified through conjugation of the epsilon-amino group of the Lysine side chain with (gamma-Gl)) [Example 966]", "cAMP Rel EC50, nM (1% HSA)": "257 nM"}
{"Binder": "YXQGTFTSDYSQXLDKKAQXAFIEYLLEGGESSGAPPPSGS (synthetic construct; SITE 2: note = 2-Aminoisobutyric Acid; SITE 13: note = alpha-methyl-leucine; SITE 17: note = Lysine is chemically modified through conjugation of the epsilon-amino group of the Lysine side chain with (2-[2-(2-Amino-ethoxy)-ethoxy]-acetyl)-(gamma-Glu)-CO-(CH2) 16-CO2H; SITE 20: n) [Example 362]", "cAMP Rel EC50, nM (1% HSA)": "450 nM"}
{"Binder": "YXQGTFTSDXSXXLDKKAQXAFIEXLIEXGPSSGEPPPSGS (Aib, 4Pal, Orn, αMeL, Me4Pal, acylated K, C-terminal amide; synthetic construct; SITE 2: note = 2-Aminoisobutyric Acid; SITE 10: note = 3-(4-Pyridyl)-L-alanine; SITE 12: note = L-ornithine; SITE 13: note = alpha-methyl-leucine; SITE 17: note = Lysine is chemically modified through conjugation of the epsilon-amino group of the Lysine side chain with (2-[2-(2-) [Example 987]", "cAMP Rel EC50, nM (1% HSA)": "515 nM"}
{"Binder": "YXQGTFTSDXSQXLDXKAQXAFIEYLIAGGPSSGEPPPSGS (non-natural residues; lipidated Lys; C-terminal amide; synthetic construct; SITE 2: note = 2-Aminoisobutyric Acid; SITE 10: note = 3-(4-Pyridyl)-L-alanine; SITE 13: note = alpha-methyl-leucine; SITE 16: note = L-ornithine; SITE 17: note = Lysine is chemically modified through conjugation of the epsilon-amino group of the Lysine side chain with (gamma-Gl)) [Example 1007]", "cAMP Rel EC50, nM (1% HSA)": "95.1 nM"}
{"Binder": "YXQGTXTSDYSILLDKKAQXXFIEYLEEGGPSSGAPPPS (synthetic construct; SITE 2: note = 2-Aminoisobutyric Acid; SITE 6: note = alpha-methyl-2-fluoro-L-phenylalanine; SITE 17: note = Lysine is chemically modified through conjugation of the epsilon-amino group of the Lysine side chain with (gamma-Glu)2-CO-(CH2)16-CO2H; SITE 20: note = 2-Aminoisobutyric) [Example 415]", "cAMP Rel EC50, nM (1% HSA)": "52.6 nM"}
{"Binder": "YXQGTFTSDFSQXLDKKAQXAFIEYLLEXGESSGEPPPSGS (synthetic construct; SITE 2: note = 2-Aminoisobutyric Acid; SITE 13: note = alpha-methyl-leucine; SITE 17: note = Lysine is chemically modified through conjugation of the epsilon-amino group of the Lysine side chain with (2-[2-(2-Amino-ethoxy)-ethoxy]-acetyl)-(gamma-Glu)-CO-(CH2) 16-CO2H; SITE 20: n) [Example 788]", "cAMP Rel EC50, nM (1% HSA)": "528 nM"}
{"Binder": "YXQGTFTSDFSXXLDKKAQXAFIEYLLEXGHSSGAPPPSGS (acylated; synthetic construct; SITE 2: note = 2-Aminoisobutyric Acid; SITE 12: note = L-ornithine; SITE 13: note = alpha-methyl-leucine; SITE 17: note = Lysine is chemically modified through conjugation of the epsilon-amino group of the Lysine side chain with (gamma-Glu)-(2-[2-(2-Amino-ethoxy)-ethoxy]-acetyl)) [Example 245]", "cAMP Rel EC50, nM (1% HSA)": "540 nM"}
